Provenance of the data: patent US20120207763A1

# studySystem: CDK2/Cyclin-A kinase complex (Homo sapiens, UniProt P24941)
# test: CDK2 IMAP fluorescence polarization assay
# Assay type: biochemical
# assayConditions: Table E; read-out: CDK2cyA IMAP/IC50 [umol l − 1]
pIC50: −log10 of the molar value.
Would you kindly list pIC50 for each of these compounds?

- structureString: "CN(C)C(=O)c1cc2cnc(NCc3ccc(N4CCN(C(=O)OC(C)(C)C)CC4)cc3)nc2n1C1CCCC1"
  studySystem: "CDK2/Cyclin-A kinase complex (Homo sapiens, UniProt P24941)"
  pIC50: "< 4.82"
- structureString: "Cc1c(-c2cnco2)n(C2CCCC2)c2nc(Nc3ccc(CN4CCNCC4)cc3)ncc12"
  studySystem: "CDK2/Cyclin-A kinase complex (Homo sapiens, UniProt P24941)"
  pIC50: "> 6.00"
- structureString: "Cc1cn(-c2nccs2)c2nc(Nc3ccc(N4CCN(S(C)(=O)=O)CC4)cn3)ncc12"
  studySystem: "CDK2/Cyclin-A kinase complex (Homo sapiens, UniProt P24941)"
  pIC50: "> 5.00"

# per-item lookup of pIC50; items listed below
1. Cc1cn(C2CCCC2)c2nc(Nc3ccc(N4CCN(S(C)(=O)=O)CC4)cn3)ncc12
2. Cc1cn(C2CCCC2)c2nc(Nc3ccc(CO)cc3)ncc12
3. Cc1c(C#N)n(C2CCCC2)c2nc(Nc3ccc(N4CCC(N(C)C)CC4)cn3)ncc12
4. CCC(CC)n1c(COC)cc2cnc(Nc3ccc(N4CCNCC4)cc3)nc21
5. c1cc2cn[nH]c2cc1Nc1ncc2ccn(C3CCCC3)c2n1
6. Cc1cn(C2CCCC2)c2nc(Nc3ccc(N4CCOCC4)cc3)ncc12

1: < 5.00; 2: > 5.00; 3: < 5.00; 4: > 5.00; 5: > 5.00; 6: > 5.00

---

# studySystem: CDK2/Cyclin-A kinase complex (Homo sapiens)
# test: CDK2 IMAP fluorescence polarization assay
# Assay type: biochemical
# assayConditions: Table E; read-out: CDK2cyA IMAP/IC50 [umol l − 1]
# Excerpt: In order to test the CDK2 activity of the compounds of the invention, the CDK2 assay is a flourescence polarization assay, where the enzyme is a purified active CDK2/Cyclin-A kinase complex and the substrate is a synthesized peptide derived from Histone H1. This assay utilizes the IMAP technology from Molecular Devices. The active CDK2/Cyclin-A complex phosphorylates the peptide substrate, which is conjugated with the TAMRA tag. […]
Would you kindly list IC50 for each of these compounds?

- structureString: "CCC(CC)n1c(C(=O)N2CCOCC2)cc2cnc(Nc3ccc(N4CCNCC4)cc3)nc21"
  studySystem: "CDK2/Cyclin-A kinase complex (Homo sapiens)"
  IC50: "> 10 µM"
- structureString: "CCC(CC)n1cc(C)c2cnc(Nc3ccc(N4CCN(C(C)=O)CC4)cc3)nc21"
  studySystem: "CDK2/Cyclin-A kinase complex (Homo sapiens)"
  IC50: "> 10 µM"

# per-item lookup of IC50; items listed below
1. Cc1cc2cnc(Nc3ccc(N4CCNCC4)cc3)nc2n1C1CCCC1
2. Cc1c(-c2cnco2)n(C2CCCC2)c2nc(Nc3ccc(CN4CCNCC4)cn3)ncc12

["< 1 µM", "< 10 µM"]

---

# studySystem: CDK2/Cyclin-A kinase complex (Homo sapiens)
# test: CDK2 IMAP fluorescence polarization assay
# Assay type: biochemical
# assayConditions: Table E; read-out: CDK2cyA IMAP/IC50 [umol l − 1]
outcomeMeasure: IC50

Consider the following illustrative entries.
- compound: "CCC(CC)n1ccc2cnc(Nc3ccc(N4CCN(C)CC4)c(F)c3)nc21"
  IC50: "< 10 µM"
- compound: "CC(=O)N1CCN(c2ccc(Nc3ncc4ccn(C5CCCC5)c4n3)cc2)CC1"
  IC50: "< 1 µM"
- compound: "CCCCNC(=O)c1cc2cnc(Nc3ccc(N4CCNCC4)cc3)nc2n1C(CC)CC"
  IC50: "> 10 µM"
- compound: "CCC(CC)n1ccc2cnc(Nc3ccc(C4CCCN(C(C)=O)C4)cc3)nc21 (stereo not drawn)"
  IC50: "< 10 µM"
- compound: "OC1CCCC(n2ccc3cnc(Nc4ccc(N5CCNCC5)cc4)nc32)C1 (stereo not drawn)"
  IC50: "< 1 µM"
- compound: "Cc1cn(C2CC2)c2nc(Nc3ccc(N4CCNCC4)cc3)ncc12"
  IC50: "> 10 µM"

# per-item lookup of IC50; items listed below
1. CCC(C)n1c(C#N)c(C)c2cnc(Nc3ccc(N4CCC(N(C)C)CC4)cc3)nc21 (stereo not drawn)
2. Cc1ccc(Nc2ncc3ccn(C4CCCC4)c3n2)nc1
3. Cc1cn(C2CCCC2)c2nc(Nc3ccc(CN4CCN(C(=O)OC(C)(C)C)CC4)cc3)ncc12
4. Cc1cc(-c2c(C)c3cnc(Nc4ccc(N5CCNCC5)cn4)nc3n2C2CCCC2)on1
5. Cc1cn(-c2ccccc2)c2nc(Nc3ccc(N4CCNCC4)cc3)ncc12 [Example 437]
6. c1cc(N2CCNCC2)ccc1Nc1ncc2ccn(C3CCCC3)c2n1

["< 1 µM", "> 10 µM", "> 15 µM", "> 10 µM", "> 10 µM", "< 10 µM"]
